Each record here notes measured IC50, SK-BR3 viability, MMAF conjugate, with 0.6 uM holo-human transferrin.
Target: CD71 on SK-BR-3 cells (human, UniProt P02786 1-760)
Sequence (P02786 whole entry): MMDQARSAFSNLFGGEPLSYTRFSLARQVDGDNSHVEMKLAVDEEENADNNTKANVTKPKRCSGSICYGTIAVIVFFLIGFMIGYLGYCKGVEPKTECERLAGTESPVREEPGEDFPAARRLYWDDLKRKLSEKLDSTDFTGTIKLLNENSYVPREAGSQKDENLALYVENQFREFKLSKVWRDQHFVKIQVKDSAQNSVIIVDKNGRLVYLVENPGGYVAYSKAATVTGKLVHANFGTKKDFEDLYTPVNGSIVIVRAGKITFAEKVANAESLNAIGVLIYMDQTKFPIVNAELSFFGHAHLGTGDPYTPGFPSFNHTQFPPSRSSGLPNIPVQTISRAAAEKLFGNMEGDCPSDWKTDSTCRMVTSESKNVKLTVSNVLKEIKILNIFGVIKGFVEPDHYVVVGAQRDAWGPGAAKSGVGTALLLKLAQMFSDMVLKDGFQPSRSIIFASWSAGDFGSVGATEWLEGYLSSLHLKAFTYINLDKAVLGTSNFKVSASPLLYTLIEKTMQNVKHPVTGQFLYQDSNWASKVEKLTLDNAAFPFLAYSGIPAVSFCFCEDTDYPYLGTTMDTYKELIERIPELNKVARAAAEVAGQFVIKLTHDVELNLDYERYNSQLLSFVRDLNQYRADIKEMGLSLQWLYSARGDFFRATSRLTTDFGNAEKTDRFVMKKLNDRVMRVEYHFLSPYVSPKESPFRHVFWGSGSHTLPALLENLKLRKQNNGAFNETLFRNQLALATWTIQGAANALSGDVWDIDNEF
Test: cell-based or functional assay
Numbers only; they are read as nM.

Some binders with recorded IC50, SK-BR3 viability, MMAF conjugate, with 0.6 uM holo-human transferrin:
- binder: "SEQ ID NO 37 (designed binder, FN3 domain) MLPAPKNLVVSRVTEDSARLSWTAPDAAFDSFHIIYTEEEKEGEAIYLRVPGSERSYDLTGLKPGTEYLVEIEGVKGGKRSVPLNASFTT"
  unit-spec: "nM"
  numeric-value: 143
- binder: "SEQ ID NO 35 (designed binder, FN3 domain) MLPAPKNLVVSRVTEDSARLSWTAPDAAFDSFEIAYFEAIWNGEAIYLTVPGSERSYDLTGLKPGTEYQVEIRGVKGGPTSRPLFAWFTT"
  unit-spec: "nM"
  numeric-value: 41.5
- binder: "SEQ ID NO 55 (designed binder, FN3 domain) MLPAPKNLVVSRVTEDSARLSWTAPDAAFDSFIIEYWEFVGYGEAIVLTVPGSERSYDLTGLKPGTEYWVAIYGVKGGDLSKPLSAIFTT"
  unit-spec: "nM"
  numeric-value: 5.5

For reference, reported IC50, SK-BR3 viability, MMAF conjugate, with 0.6 uM holo-human transferrin for SEQ ID NO 41 (designed binder, FN3 domain) MLPAPKNLVISRVTEDSARLSWTAPDAAFDSFFIYYIESYPAGEAIVLTVPGSERSYDLTGLKPGTEYWVGIDGVKGGRWSTPLSAIFTT stands at 0.5

For reference, reported IC50, SK-BR3 viability, MMAF conjugate, with 0.6 uM holo-human transferrin for SEQ ID NO 56 (designed binder, FN3 domain) MLPAPKNLVVSRVTEDSARLSWTAPDAAFDSFVIEYFEALEGGEAIVLTVPGSERSYDLTGLKPGTEYFVGIYGVKGGPLSKPLSAIFTT stands at 14.7

For reference, reported IC50, SK-BR3 viability, MMAF conjugate, with 0.6 uM holo-human transferrin for SEQ ID NO 57 (designed binder, FN3 domain) MLPAPKNLVVSRVTEDSARLSWTAPDAAFDSFSIKYLEWWQDGEAIVLTVPGSERSYDLTGLKPGTEYYVHIAGVKGGYRSYPLSAIFTT stands at 5.3
